system: CEM-SS; assay: Effective concentration required for 50% inhibition of viral replication by XTT cytoprotection assay carried out in CEM-SS cells; assay type: functional, cell-based, Homo sapiens; settings: Homo sapiens, CEM-SS
pEC50: −log10 of the molar value.
measure: pEC50

- Cc1cn([C@H]2C[C@H](N=[N+]=[N-])[C@@H](CO)O2)c(=O)[nH]c1=O: 6.52
- CC1(C)CCC[C@@]2(C)[C@H](c3ccoc3)C(=O)[C@H]3O[C@@]312 (racemic): 5.89
- CC1(C)CCC[C@]2(C)[C@@H](c3ccoc3)C(=O)[C@@H]3O[C@]312: 4.38
